Cited source: patent US20170007608A1

Some molecules, each annotated with its measured AC50.
assaySystem: PKM2 (Homo sapiens, UniProt P14618)
Sequence (P14618 whole entry): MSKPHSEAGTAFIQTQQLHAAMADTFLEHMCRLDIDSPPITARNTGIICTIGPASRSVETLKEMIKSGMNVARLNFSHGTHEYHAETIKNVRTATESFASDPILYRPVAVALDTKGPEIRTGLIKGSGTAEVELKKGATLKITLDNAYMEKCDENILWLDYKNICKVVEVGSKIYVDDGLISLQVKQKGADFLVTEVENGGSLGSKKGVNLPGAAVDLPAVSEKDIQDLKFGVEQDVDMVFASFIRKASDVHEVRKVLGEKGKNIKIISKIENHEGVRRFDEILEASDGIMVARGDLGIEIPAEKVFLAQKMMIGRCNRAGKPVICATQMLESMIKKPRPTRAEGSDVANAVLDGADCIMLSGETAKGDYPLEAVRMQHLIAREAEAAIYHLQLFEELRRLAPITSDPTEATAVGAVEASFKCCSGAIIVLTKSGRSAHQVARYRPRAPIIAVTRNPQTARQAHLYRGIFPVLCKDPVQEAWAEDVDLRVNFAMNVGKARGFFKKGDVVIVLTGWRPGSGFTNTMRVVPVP
measurementNotes: PKM2 Assay Procedure (LDH/NADH-coupled, absorbance at 340 nm)
Format: biochemical
conditionLabel: Table 1; PKM2 activation

| smilesNotation | assayMetric | measured |
| --- | --- | --- |
| O=C(COc1ccc(-n2cnnn2)cc1)N1CCN(S(=O)(=O)c2ccc3ccccc3c2)CC1 | AC50 | 100 to 500 nM |
| O=S(=O)(Nc1ccc(Cl)cc1)c1cncn1-c1cnccn1 | AC50 | > 500 nM |
| Cn1c(=O)oc2cc(S(=O)(=O)Nc3cccc(Cl)c3)ccc21 | AC50 | < 100 nM |
| O=C(c1ccc(NS(=O)(=O)c2ccc(Cl)cc2)cc1)N1CCN(c2ncccn2)CC1 | AC50 | > 500 nM |
| O=C(c1ccc(NS(=O)(=O)c2cccc3cccnc23)cc1)N1CCN(Cc2ccc(Cl)nc2)CC1 | AC50 | < 100 nM |

For the next question, use this molecule.
Problem: I am curious: what AC50 value has been reported for "O=C(c1ccc(NS(=O)(=O)c2cccc3cccnc23)cc1)N1CCN(Cc2cccc(Cl)c2)CC1" ?
Solution: < 100 nM

---

Some compounds, each annotated with its measured AC50.
assaySystem: PKM2 (Homo sapiens, UniProt P14618)
measurementNotes: PKM2 Assay Procedure (LDH/NADH-coupled, absorbance at 340 nm)
Type: biochemical
conditionLabel: Table 1; PKM2 activation

Solved cases below.
| smilesNotation | AC50 |
| --- | --- |
| Cc1cc2oc(=O)n(C)c2cc1S(=O)(=O)Nc1ccc(F)c(Cl)c1 | < 100 nM |
| O=C(c1ccc(NS(=O)(=O)c2cccc3cccnc23)cc1)N1CCN(Cc2ccc(F)cc2)CC1 | < 100 nM |
| O=C(c1ccc(NS(=O)(=O)c2cccc3cccnc23)cc1)N1CCN(c2ccccc2)CC1 | < 100 nM |
| O=C(c1ccc(NS(=O)(=O)c2cccc3cccnc23)cc1)N1CCN(Cc2ccc(Br)cc2)CC1 | < 100 nM |
| Cc1cc(NS(=O)(=O)c2cccn2-c2ncc(C(F)(F)F)cc2Cl)ccc1F | < 100 nM |
| O=S(=O)(Nc1ccc(F)cc1)c1cncn1-c1ccc(C(F)(F)F)cn1 | > 500 nM |

Problem: I am curious: what AC50 value has been reported for "Cc1cc2oc(=O)n(C)c2cc1S(=O)(=O)Nc1cc(F)cc(Cl)c1" ?
Solution: > 500 nM

Problem: Request: "O=C(c1ccc(NS(=O)(=O)c2cccc3cccnc23)cc1)N1CCN(Cc2ccccc2)CC1"
Solution: < 100 nM

Problem: Request: "O=S(=O)(Nc1cc(F)cc(F)c1)c1cccn1-c1ncc(C(F)(F)F)cc1Cl"
Solution: > 500 nM

Problem: Request: "Cc1cc(C)cc(NS(=O)(=O)c2cccn2-c2ncc(C(F)(F)F)cc2Cl)c1"
Solution: < 100 nM

Problem: Request: "CC(=O)c1ccc(CN2CCN(C(=O)c3ccc(NS(=O)(=O)c4cccc5cccnc45)cc3)CC2)cc1"
Solution: 100 to 500 nM

Problem: Request: "O=S(=O)(Nc1ccc2c(c1)OCCO2)c1cncn1-c1ccc(C(F)(F)F)cn1"
Solution: > 500 nM

---

assaySystem: PKM2 (Homo sapiens, UniProt P14618)
measurementNotes: PKM2 Assay Procedure (LDH/NADH-coupled, absorbance at 340 nm)
Type: biochemical
conditionLabel: Table 2; PKM2 activation
Some compounds, each annotated with its measured AC50.

Problem: I am curious: what AC50 value has been reported for COc1ccc(Cl)cc1S(=O)(=O)Nc1ccc2oc(=O)n(C)c2c1 [drawing 91] ?
Solution: < 1 µM

Problem: Request: "COc1ccc(Cl)cc1S(=O)(=O)Nc1ccc2sc(=O)n(C)c2c1"
Solution: 1 to 10 µM

Problem: Request: "Cn1c(=O)oc2cc(NS(=O)(=O)c3cccs3)ccc21"
Solution: 10 to 50 µM

Problem: Request: COc1ccc(Cl)cc1S(=O)(=O)Nc1ccc2oc(=O)n(C)c2c1 [drawing 74]
Solution: > 100 µM

Problem: Request: "Cc1ccc(OCC(=O)N2CCN(S(=O)(=O)c3cc4oc(=O)n(C)c4cc3C)CC2)cc1"
Solution: 1 to 10 µM

---

assaySystem: PKM2 (Homo sapiens)
measurementNotes: PKM2 Assay Procedure (LDH/NADH-coupled, absorbance at 340 nm)
Assay type: biochemical
conditionLabel: Table 1; PKM2 activation
Some compounds, each annotated with its measured AC50.

Solved cases below.
| smilesNotation | AC50 |
| --- | --- |
| O=S(=O)(Nc1ccc2c(c1)OCO2)c1cccn1-c1ncc(C(F)(F)F)cc1Cl | < 100 nM |
| COc1ccccc1N1CCN(C(=O)c2ccc(NS(=O)(=O)c3ccc4ccccc4c3)cc2)CC1 | > 500 nM |
| Cc1cc(C)cc(NS(=O)(=O)c2cccn2-c2ncccn2)c1 | < 100 nM |

Problem: I am curious: what AC50 value has been reported for "O=S(=O)(Nc1ccc(Cl)cc1)c1cccn1-c1ncc(C(F)(F)F)cc1Cl" ?
Solution: < 100 nM

Problem: Request: "O=C(c1ccc(NS(=O)(=O)c2cccc3cccnc23)cc1)N1CCN(Cc2ccc(Cl)cc2)CC1"
Solution: < 100 nM

---

assaySystem: PKM2 (Homo sapiens, UniProt P14618)
measurementNotes: PKM2 Assay Procedure (LDH/NADH-coupled, absorbance at 340 nm)
Assay type: biochemical
conditionLabel: Table 1; PKM2 activation
assayMetric: AC50

Problem: Checklist item: AC50 tested on PKM2 (Homo sapiens, UniProt P14618), entry "Nc1cccc(S(=O)(=O)N2CCCN(S(=O)(=O)c3cccc4c3OCCO4)CC2)c1" , value?
Solution: < 100 nM

Problem: Request: "Cc1cccc(NS(=O)(=O)c2cncn2-c2ncc(C(F)(F)F)cc2Cl)c1"
Solution: < 100 nM

Problem: Request: "COc1ccccc1N1CCN(C(=O)c2ccc(NS(=O)(=O)c3ccc(Cl)c4nonc34)cc2)CC1"
Solution: > 500 nM

---

assaySystem: PKM2 (Homo sapiens, UniProt P14618)
measurementNotes: PKM2 Assay Procedure (LDH/NADH-coupled, absorbance at 340 nm)
Format: biochemical
conditionLabel: Table 1; PKM2 activation
Some molecules, each annotated with its measured AC50.

| smilesNotation | assayMetric | measured |
| --- | --- | --- |
| O=C(c1ccc(NS(=O)(=O)c2cccc3cccnc23)cc1)N1CCN(Cc2ccccc2Cl)CC1 | AC50 | < 0.1 µM |
| O=S(=O)(Nc1ccccc1C(F)(F)F)c1cccn1-c1ncc(C(F)(F)F)cc1Cl | AC50 | > 0.5 µM |
| Cc1cc(C)cc(NS(=O)(=O)c2cncn2-c2ncc(C(F)(F)F)cc2Cl)c1 | AC50 | < 0.1 µM |
| COc1ccccc1N1CCCN(C(=O)c2ccc(NS(=O)(=O)c3cccc4cccnc34)cc2)CC1 | AC50 | > 0.5 µM |
| N#Cc1ccc(CN2CCN(C(=O)c3ccc(NS(=O)(=O)c4cccc5cccnc45)cc3)CC2)cc1 | AC50 | < 0.1 µM |
| COc1ccccc1N1CCN(C(=O)c2ccc(N(C)S(=O)(=O)c3cccc4cccnc34)cc2)CC1 | AC50 | < 0.1 µM |
| Cc1cc(NS(=O)(=O)c2cnn(-c3cnccn3)c2)ccc1F | AC50 | 0.1 to 0.5 µM |
| O=C(c1ccc(NS(=O)(=O)c2cccc3cccnc23)cc1)N1CCN(Cc2cccnc2Cl)CC1 | AC50 | < 0.1 µM |
| O=S(=O)(c1ccc2c(c1)OCCO2)N1CCN(S(=O)(=O)c2c(F)cccc2F)CC1 | AC50 | < 0.1 µM |
| CC(=O)c1ccccc1CN1CCN(C(=O)c2ccc(NS(=O)(=O)c3cccc4cccnc34)cc2)CC1 | AC50 | < 0.1 µM |

For the next question, use this molecule.
Problem: I am curious: what AC50 value has been reported for "Cc1cc(C)cc(NS(=O)(=O)c2ccnn2-c2ncc(C(F)(F)F)cc2Cl)c1" ?
Solution: < 0.1 µM

---

Some compounds, each annotated with its measured AC50.
assaySystem: PKM2 (Homo sapiens, UniProt P14618)
measurementNotes: PKM2 Assay Procedure (LDH/NADH-coupled, absorbance at 340 nm)
Assay type: biochemical
conditionLabel: Table 1; PKM2 activation

Solved cases below.
| smilesNotation | measured |
| --- | --- |
| COc1ccccc1N1CCN(C(=O)c2ccc(NS(=O)(=O)c3cccc4cccnc34)cc2)CC1 | < 0.1 µM |
| COc1ccccc1N1CCN(C(=O)c2ccc(NS(=O)(=O)c3ccc4c(c3)OCCO4)cc2)CC1 | 0.1 to 0.5 µM |
| N#Cc1cccc(CN2CCN(C(=O)c3ccc(NS(=O)(=O)c4cccc5cccnc45)cc3)CC2)c1 | < 0.1 µM |
| COc1ccccc1N1CCN(C(=O)c2ccc(NS(=O)(=O)c3cccc4cccnc34)nc2)CC1 | < 0.1 µM |
| Cc1cc2oc(=O)n(C)c2cc1S(=O)(=O)Nc1cccc(Cl)c1 | 0.1 to 0.5 µM |

Problem: Checklist item: AC50 tested on PKM2 (Homo sapiens, UniProt P14618), entry "Cc1cc2c(s1)c1cnn(Cc3ccccc3F)c(=O)c1n2C" , value?
Solution: < 0.1 µM

Problem: Request: "O=C(c1ccc(NS(=O)(=O)c2cccc3cccnc23)cc1)N1CCN(c2ncccn2)CC1"
Solution: 0.1 to 0.5 µM

Problem: Request: "O=S(=O)(Nc1ccc(F)c(Cl)c1)c1cncn1-c1cnccn1"
Solution: < 0.1 µM

Problem: Request: "COc1ccccc1CN1CCN(C(=O)c2ccc(NS(=O)(=O)c3cccc4cccnc34)cc2)CC1"
Solution: < 0.1 µM

Problem: Request: "O=C(c1ccc(NS(=O)(=O)c2cccc3cccnc23)cc1)N1CCN(Cc2ccccn2)CC1"
Solution: < 0.1 µM

Problem: Request: "Cc1cc(C)cc(NS(=O)(=O)c2ccc3c(c2)oc(=O)n3C)c1"
Solution: < 0.1 µM

Problem: Request: "COc1cccc(CN2CCN(C(=O)c3ccc(NS(=O)(=O)c4cccc5cccnc45)cc3)CC2)c1"
Solution: < 0.1 µM

Problem: Request: "N#Cc1ccccc1CN1CCN(C(=O)c2ccc(NS(=O)(=O)c3cccc4cccnc34)cc2)CC1"
Solution: < 0.1 µM
